Values were extracted from patent US20120328569A1.

# Tested on: HCV genotype 1b replicon
# protocolDescription: HCV replicon assay, cell ELISA with antibody to replicon-encoded NS3/4A (genotype 1b replicon)
# Assay type: cell-based, hepatitis C virus
# runParameters: Hepatitis C virus, 96 h, read-out: 1b IC50(nM), HCV genotype 1b replicon; 96 hours incubation; NS3/4A cell ELISA
Reported IC50 is given for each of the following molecules.

- molecule: "CNC(=O)c1c(-c2ccc(F)cc2)oc2cc(N(C)S(C)(=O)=O)c(-c3cc(-c4nc5ncccc5o4)ccn3)cc12 [Example 509]"
  units: "nM"
  IC50: 3
- molecule: "CNC(=O)c1c(-c2ccc(F)cc2)oc2cc(N(CC3CCS(=O)(=O)C3)S(C)(=O)=O)c(-c3cccc(-c4nc5ncccc5o4)c3)cc12 (stereo not drawn) [Example 719]"
  units: "nM"
  IC50: 3.14
- molecule: "CNC(=O)c1c(-c2ccc(F)cc2)oc2cc(N(Cc3cccnc3)S(C)(=O)=O)c(-c3ccc(OC)c(-c4nc5c(C#N)cccc5o4)c3)cc12 [Example 708]"
  units: "nM"
  IC50: 3.95
- molecule: "CNC(=O)c1c(-c2ccc(F)cc2)oc2cc(N(CC(O)CC#N)S(C)(=O)=O)c(-c3ccc(OC)c(-c4nc5ccccc5o4)c3)cc12 (stereo not drawn) [Example 820]"
  units: "nM"
  IC50: 5.06
- molecule: "CNC(=O)c1c(-c2ccc(F)cc2)oc2cc(N(C)S(C)(=O)=O)c(-c3ccc(OC)c(-c4nc5c(CC#N)cccc5[nH]4)c3)cc12 [Example 427]"
  units: "nM"
  IC50: 4.35
- molecule: "CNC(=O)c1c(-c2ccc(F)cc2)oc2cc(N(CC(C)(CO)CO)S(C)(=O)=O)c(-c3ccc(OC)c(-c4nc5c(F)cc(F)cc5o4)c3)cc12 [Example 788]"
  units: "nM"
  IC50: 79

====

# System: HCV genotype 1b replicon
# protocolDescription: HCV replicon assay, cell ELISA with antibody to replicon-encoded NS3/4A (genotype 1b replicon)
# Format: cell-based, hepatitis C virus
# runParameters: Hepatitis C virus, 96 h, read-out: 1b IC50(nM), HCV genotype 1b replicon; 96 hours incubation; NS3/4A cell ELISA
Labelling field: enter MET if recorded IC50 is less than 4 nM. Enter NOT MET if it equals or exceeds that cut-off.

- compound: "CNC(=O)c1c(-c2ccc(F)cc2)oc2cc(N(CC3CC3)S(C)(=O)=O)c(-c3ccc(OC)c(-c4nc5cc(F)cc(F)c5o4)c3)cc12"
  groupLabel: "NOT MET"
- compound: "CNC(=O)c1c(-c2ccc(F)cc2)oc2cc(N(C)S(C)(=O)=O)c(C#Cc3ccccc3)cc12"
  groupLabel: "NOT MET"
- compound: "CNC(=O)c1c(-c2ccc(F)cc2)oc2cc(N(CC(C)(CF)CF)S(C)(=O)=O)c(-c3ccc(OC)c(-c4nc5c(F)cc(F)cc5o4)c3)cc12"
  groupLabel: "NOT MET"
- compound: "CNC(=O)c1c(-c2ccc(F)cc2)oc2cc(N(C)S(C)(=O)=O)c(-c3ccc(Cl)c(-c4nc5c(F)cccc5o4)c3)cc12"
  groupLabel: "NOT MET"
- compound: "CNC(=O)c1c(-c2ccc(F)cc2)oc2cc(N(C)S(C)(=O)=O)c(-c3ccc(OC)c(-c4nc5ccc(-c6cncnc6)cc5o4)c3)cc12"
  groupLabel: "NOT MET"
- compound: "CNC(=O)c1c(-c2ccc(F)cc2)oc2cc(N(CC3(C)COC3)S(C)(=O)=O)c(-c3cccc(-c4nc5ncccc5o4)c3)cc12"
  groupLabel: "MET"
- compound: "CNC(=O)c1c(-c2ccc(F)cc2)oc2cc(N(CC3(C)COC3)S(C)(=O)=O)c(-c3ccc(OC)c(-c4nc5c(F)cccc5o4)c3)cc12"
  groupLabel: "NOT MET"
- compound: "CNC(=O)c1c(-c2ccc(F)cc2)oc2cc(N(C)S(C)(=O)=O)c(-c3ccc(OC)c(-c4nc5cc(F)ccc5o4)c3)cc12"
  groupLabel: "MET"
- compound: "CNC(=O)c1c(-c2ccc(F)cc2)oc2cc(N(C)S(C)(=O)=O)c(-c3ccc(OC)c(-c4nc5c(C(C)(C)C#N)cccc5o4)c3)cc12"
  groupLabel: "NOT MET"
- compound: "CNC(=O)c1c(-c2ccc(F)cc2)oc2cc(N(CC(O)Cn3ccnc3)S(C)(=O)=O)c(-c3ccc(OC)c(-c4nc5c(F)cccc5o4)c3)cc12 (stereo not drawn)"
  groupLabel: "NOT MET"
- compound: "CNC(=O)c1c(-c2ccc(F)cc2)oc2cc(N(CC(O)CC#N)S(C)(=O)=O)c(-c3ccc(OC)c(-c4nc5c(F)cc(F)cc5o4)c3)cc12 (stereo not drawn)"
  groupLabel: "NOT MET"
- compound: "CNC(=O)c1c(-c2ccc(F)cc2)oc2cc(N(C)S(C)(=O)=O)c(-c3ccc(OC)c(-c4nc5cc(-c6cncnc6)ccc5o4)c3)cc12"
  groupLabel: "MET"
- compound: "CNC(=O)c1c(-c2ccc(F)cc2)oc2cc(N(C)S(C)(=O)=O)c(-c3ccc(OC)c(-c4nc5cccc(C#N)c5o4)c3)cc12"
  groupLabel: "MET"
- compound: "CNC(=O)c1ccc(-c2cc3c(C(=O)NC)c(-c4ccc(F)cc4)oc3cc2N(C)S(C)(=O)=O)cc1-c1nc2c(F)cccc2o1"
  groupLabel: "NOT MET"
- compound: "CNC(=O)c1c(-c2ccc(F)cc2)oc2cc(N(CC(C)(C)O)S(C)(=O)=O)c(-c3ccc(OC)c(-c4nc5cc(F)cc(F)c5o4)c3)cc12"
  groupLabel: "NOT MET"
- compound: "CNC(=O)c1c(-c2ccc(F)cc2)oc2cc(N(C3CC(C#N)C3)S(C)(=O)=O)c(-c3cccc(-c4nc5ncccc5o4)c3)cc12 (stereo not drawn)"
  groupLabel: "MET"
- compound: "CNC(=O)c1c(-c2ccc(F)cc2)oc2cc(N(C)S(C)(=O)=O)c(-c3ccc(-c4cnco4)c(-c4nc5c(F)cccc5o4)c3)cc12"
  groupLabel: "MET"
- compound: "CNC(=O)c1c(-c2ccc(F)cc2)oc2cc(N(C)S(C)(=O)=O)c(-c3ccc4c(c3)-c3[nH]c5ccccc5c3C(C(C)(C)C)O4)cc12 (stereo not drawn)"
  groupLabel: "NOT MET"
- compound: "CNC(=O)c1c(-c2ccc(F)cc2)oc2cc(N(C3COC3)S(C)(=O)=O)c(-c3ccc(OC)c(-c4nc5c(F)cccc5o4)c3)cc12"
  groupLabel: "NOT MET"
- compound: "CNC(=O)c1c(-c2ccc(F)cc2)oc2cc(N(C)S(C)(=O)=O)c(-c3cc(-c4nc5c(F)cccc5o4)c4oc(=O)[nH]c4c3)cc12"
  groupLabel: "MET"
- compound: "CNC(=O)c1c(-c2ccc(F)cc2)oc2cc(N(C)S(C)(=O)=O)c(-c3cc(F)cc(-c4nc5ncc(F)cc5o4)c3)cc12"
  groupLabel: "MET"
- compound: "CNC(=O)c1c(-c2ccc(F)cc2)oc2cc(N(CCF)S(C)(=O)=O)c(-c3ccc(OC)c(-c4nc5cccc(F)c5o4)c3)cc12"
  groupLabel: "MET"
- compound: "CNC(=O)c1c(-c2ccc(F)cc2)oc2cc(N(CC3CCOC(c4ccccc4)O3)S(C)(=O)=O)c(-c3ccc(OC)c(-c4nc5c(F)cccc5o4)c3)cc12 (stereo not drawn)"
  groupLabel: "NOT MET"
